# credit: patent US11014895B2

Overview of recorded IC50 for various compounds
experimental-target: IDO1 enzyme (Homo sapiens, UniProt P14902)
Sequence (P14902 whole entry): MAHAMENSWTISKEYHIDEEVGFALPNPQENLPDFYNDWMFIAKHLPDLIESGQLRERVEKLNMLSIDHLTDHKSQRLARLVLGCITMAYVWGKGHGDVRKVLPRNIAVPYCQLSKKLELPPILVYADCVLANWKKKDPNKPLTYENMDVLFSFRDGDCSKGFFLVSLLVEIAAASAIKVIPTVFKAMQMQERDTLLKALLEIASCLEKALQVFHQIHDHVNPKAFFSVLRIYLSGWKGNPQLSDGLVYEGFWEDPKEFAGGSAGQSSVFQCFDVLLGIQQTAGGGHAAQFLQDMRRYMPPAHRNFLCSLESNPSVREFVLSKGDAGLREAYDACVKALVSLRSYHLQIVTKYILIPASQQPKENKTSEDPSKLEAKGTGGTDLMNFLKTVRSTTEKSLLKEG
test-summary: Determination of biochemical activity of IDO1 enzyme (absorbance at 320 nm)
measurement-parameters: room temperature, 3 hours

>>> value("O=C(Nc1cocc1/C(=N/O)Nc1ccc(F)c(Br)c1)NC1CCCCC1")
"0.1 to 1 µM"
>>> value("N=C(Nc1ccc(O)cc1)Nc1nonc1/C(=N/O)Nc1ccc(F)c(Br)c1")
"< 0.001 µM"

Q. Give the measured IC50 of N=C(Nc1ccc(C(F)(F)F)cc1)Nc1nonc1/C(=N/O)Nc1ccc(F)c(Br)c1 .
A. > 1 µM

Q. Give the measured IC50 of NCCCNC(=O)Nc1nocc1/C(=N/O)Nc1ccc(F)c(Br)c1 .
A. < 0.001 µM
